No end group written: not given here.
measuredParameter: time to degradation in serum

Before answering, review these 2 worked examples.
If you can, please state the reported time to degradation in serum value of DDKRVYIHPF [VC2, [Asp^0, endo-(Lys^1a)]-All] .
< 30 min

Would you mind telling me what time to degradation in serum value was observed for DRDVKYIHPF [VC6, [endo-(Asp^2a), endo-(Lys^3a)]-All] ?
< 30 min

# context switch: different sequence, same time to degradation in serum
Entry DDRKVYIHPF [VC4, [endo-(Asp^1a), endo-(Lys^2a)]-All] has what time to degradation in serum?
< 30 min
